# Tested on: HEP-G2-Zellen
# assay-remarks: Inhibition of cholesterol biosynthesis: incorporation of 14C sodium acetate into cholesterol in HEP-G2 cell monolayers
# Assay type: cell-based
# conditions: Homo sapiens, HepG2, Konzentration im Medium 10^-7 M, read-out: % Cholesterin-Biosynthese-Hemmung
Parameter: inhibition at 0.1 µM. Scope: all listed entries.
parameter-measured: inhibition at 0.1 µM (%)

compound | parameter-measured | measured
CC1CC2OC2C(OC(=O)Nc2ccccc2)CC(=O)CC(=O)O1 (centres unmarked) | inhibition at 0.1 µM | 68
CC(=O)OC1CC(=O)CC(=O)OC(C)CC2OC12 (centres unmarked) | inhibition at 0.1 µM | 13
CCCCC(=O)OC1CC(=O)CC(=O)OC(C)CC2OC12 (centres unmarked) | inhibition at 0.1 µM | 73
CC(C)CC(=O)OC1CC(=O)CC(=O)OC(C)CC2OC12 (centres unmarked) | inhibition at 0.1 µM | 59
CCC(=O)OC1CC(=O)CC(=O)OC(C)CC2OC12 (centres unmarked) | inhibition at 0.1 µM | 69
